# Assay comment: gradient 5% acetonitrile 3 min, to 50% in 2 min, to 85% in 15 min, held 3 min, 100 µL/min
# Condition set: column: Zorbax Extend-C18 2.1 x 50 mm; eluents: water / acetonitrile, 0.1% formic acid
Endpoint: RP-LC retention time (s)

>>> print(df.to_string())
                                   compound              endpoint  recorded_value
0  Clc1ccc(-c2ccc(CNCc3ccc4c(c3)OCO4)o2)cc1  RP-LC retention time             762
1  CC(NC(=O)c1ccc2c(c1)CCCN2S(C)(=O)=O)c1ccccc1 (centres undefined)  RP-LC retention time             862
2  COc1cc2c(cc1OC)C(C(=O)NCCCN1CCCC1)C(c1cccs1)N(C)C2=O (centres undefined)  RP-LC retention time             606
3  Cc1ccc2c(c1)N(C(=O)Cn1c(=O)n(C3CC3)c(=O)c3nscc31)CCO2  RP-LC retention time             773

A: Cc1ccc(NC(=O)N2c3ccccc3CC2c2nc(C3CC3)no2)c(C)c1 (centres undefined)
B: CC1=C(c2ccc(Cl)cc2)S(=O)(=O)N=C1N1CCCN(C(=O)C2CCOC2)CC1 (centres undefined)
Query: Choose between A and B : whose measured RP-LC retention time value is numerically larger? Write down the label attached to your selection.
Response: A

---

# Assay comment: gradient 5% acetonitrile 3 min, to 50% in 2 min, to 85% in 15 min, held 3 min, 100 µL/min
# Condition set: column: Zorbax Extend-C18 2.1 x 50 mm; eluents: water / acetonitrile, 0.1% formic acid
Endpoint: RP-LC retention time (s)

Reference set, count: 2
>>> print(df.to_string())
                                   compound              endpoint  recorded_value
0  Cc1csc(C(=O)NCC2CCN(C(=O)COc3ccccc3)CC2)c1  RP-LC retention time             734
1  O=C(NCCCN1CCOCC1)c1ccc(CS(=O)Cc2cccc(Cl)c2)o1 (stereo not given)  RP-LC retention time             610

A: CN1C(=O)CCc2cc(NS(=O)(=O)c3cccc4nsnc34)ccc21
B: O=C(Nc1ccc2c(c1)OCO2)C(=O)c1cccn1Cc1ccc(F)cc1
Query: Choose between A and B : whose measured RP-LC retention time value is numerically larger? Write down the label attached to your selection.
Response: B
(B: 1050 s, A: 716 s)

a: CCN(CC)CCCNC(=O)C1c2ccccc2C(=O)N(C)C1c1cccs1 (stereo not given)
b: Cc1cccc(-c2noc(CN3C(=O)COc4ccccc43)n2)c1
Query: Parameter metric = RP-LC retention time. Return the lower-valued option from a and b . Write down the label attached to your selection.
Response: a
(a: 602 s, b: 1030 s)

1: COc1ccc(NC(=O)C2CCc3sc(C(=O)N4CCCC4)cc3C2)cc1F (stereo not given)
2: O=C(NCC1(c2nc(-c3ccccc3)cs2)CCOCC1)c1cccc(-c2noc(C(F)(F)F)n2)c1
Query: Parameter metric = RP-LC retention time. Return the lower-valued option from 1 and 2 . Write down the label attached to your selection.
Response: 1

---

# Assay comment: gradient 5% acetonitrile 3 min, to 50% in 2 min, to 85% in 15 min, held 3 min, 100 µL/min
# Condition set: column: Zorbax Extend-C18 2.1 x 50 mm; eluents: water / acetonitrile, 0.1% formic acid
Endpoint: RP-LC retention time (s)

>>> df
                                   compound  scale_unit  recorded_value
0  Cc1ccc(-c2nnc(-c3nn(C)c4c3CN(S(=O)(=O)c3cccc(C)c3)CC4)o2)cc1           s             998

a: Cc1ccc(Cl)cc1NC(=O)N1CCC(n2cnc3c(C)cccc3c2=O)CC1
b: COc1ccc(S(=O)(=O)N2CCCC2)cc1C(=O)NC1CCS(=O)(=O)C1 (centres undefined)
Query: Choose between a and b : whose measured RP-LC retention time value is numerically larger? Write down the label attached to your selection.
Response: a

// provenance: the METLIN SMRT retention time set (Domingo-Almenara et al. 2019)
